target: Histone acetyltransferase p300 (Homo sapiens); assay: Binding affinity to human EP300 (A1040 to G1161 residues) expressed in bacterial expression system by BROMOscan assay
Sequence (Q09472 whole entry, the tested form may be a part): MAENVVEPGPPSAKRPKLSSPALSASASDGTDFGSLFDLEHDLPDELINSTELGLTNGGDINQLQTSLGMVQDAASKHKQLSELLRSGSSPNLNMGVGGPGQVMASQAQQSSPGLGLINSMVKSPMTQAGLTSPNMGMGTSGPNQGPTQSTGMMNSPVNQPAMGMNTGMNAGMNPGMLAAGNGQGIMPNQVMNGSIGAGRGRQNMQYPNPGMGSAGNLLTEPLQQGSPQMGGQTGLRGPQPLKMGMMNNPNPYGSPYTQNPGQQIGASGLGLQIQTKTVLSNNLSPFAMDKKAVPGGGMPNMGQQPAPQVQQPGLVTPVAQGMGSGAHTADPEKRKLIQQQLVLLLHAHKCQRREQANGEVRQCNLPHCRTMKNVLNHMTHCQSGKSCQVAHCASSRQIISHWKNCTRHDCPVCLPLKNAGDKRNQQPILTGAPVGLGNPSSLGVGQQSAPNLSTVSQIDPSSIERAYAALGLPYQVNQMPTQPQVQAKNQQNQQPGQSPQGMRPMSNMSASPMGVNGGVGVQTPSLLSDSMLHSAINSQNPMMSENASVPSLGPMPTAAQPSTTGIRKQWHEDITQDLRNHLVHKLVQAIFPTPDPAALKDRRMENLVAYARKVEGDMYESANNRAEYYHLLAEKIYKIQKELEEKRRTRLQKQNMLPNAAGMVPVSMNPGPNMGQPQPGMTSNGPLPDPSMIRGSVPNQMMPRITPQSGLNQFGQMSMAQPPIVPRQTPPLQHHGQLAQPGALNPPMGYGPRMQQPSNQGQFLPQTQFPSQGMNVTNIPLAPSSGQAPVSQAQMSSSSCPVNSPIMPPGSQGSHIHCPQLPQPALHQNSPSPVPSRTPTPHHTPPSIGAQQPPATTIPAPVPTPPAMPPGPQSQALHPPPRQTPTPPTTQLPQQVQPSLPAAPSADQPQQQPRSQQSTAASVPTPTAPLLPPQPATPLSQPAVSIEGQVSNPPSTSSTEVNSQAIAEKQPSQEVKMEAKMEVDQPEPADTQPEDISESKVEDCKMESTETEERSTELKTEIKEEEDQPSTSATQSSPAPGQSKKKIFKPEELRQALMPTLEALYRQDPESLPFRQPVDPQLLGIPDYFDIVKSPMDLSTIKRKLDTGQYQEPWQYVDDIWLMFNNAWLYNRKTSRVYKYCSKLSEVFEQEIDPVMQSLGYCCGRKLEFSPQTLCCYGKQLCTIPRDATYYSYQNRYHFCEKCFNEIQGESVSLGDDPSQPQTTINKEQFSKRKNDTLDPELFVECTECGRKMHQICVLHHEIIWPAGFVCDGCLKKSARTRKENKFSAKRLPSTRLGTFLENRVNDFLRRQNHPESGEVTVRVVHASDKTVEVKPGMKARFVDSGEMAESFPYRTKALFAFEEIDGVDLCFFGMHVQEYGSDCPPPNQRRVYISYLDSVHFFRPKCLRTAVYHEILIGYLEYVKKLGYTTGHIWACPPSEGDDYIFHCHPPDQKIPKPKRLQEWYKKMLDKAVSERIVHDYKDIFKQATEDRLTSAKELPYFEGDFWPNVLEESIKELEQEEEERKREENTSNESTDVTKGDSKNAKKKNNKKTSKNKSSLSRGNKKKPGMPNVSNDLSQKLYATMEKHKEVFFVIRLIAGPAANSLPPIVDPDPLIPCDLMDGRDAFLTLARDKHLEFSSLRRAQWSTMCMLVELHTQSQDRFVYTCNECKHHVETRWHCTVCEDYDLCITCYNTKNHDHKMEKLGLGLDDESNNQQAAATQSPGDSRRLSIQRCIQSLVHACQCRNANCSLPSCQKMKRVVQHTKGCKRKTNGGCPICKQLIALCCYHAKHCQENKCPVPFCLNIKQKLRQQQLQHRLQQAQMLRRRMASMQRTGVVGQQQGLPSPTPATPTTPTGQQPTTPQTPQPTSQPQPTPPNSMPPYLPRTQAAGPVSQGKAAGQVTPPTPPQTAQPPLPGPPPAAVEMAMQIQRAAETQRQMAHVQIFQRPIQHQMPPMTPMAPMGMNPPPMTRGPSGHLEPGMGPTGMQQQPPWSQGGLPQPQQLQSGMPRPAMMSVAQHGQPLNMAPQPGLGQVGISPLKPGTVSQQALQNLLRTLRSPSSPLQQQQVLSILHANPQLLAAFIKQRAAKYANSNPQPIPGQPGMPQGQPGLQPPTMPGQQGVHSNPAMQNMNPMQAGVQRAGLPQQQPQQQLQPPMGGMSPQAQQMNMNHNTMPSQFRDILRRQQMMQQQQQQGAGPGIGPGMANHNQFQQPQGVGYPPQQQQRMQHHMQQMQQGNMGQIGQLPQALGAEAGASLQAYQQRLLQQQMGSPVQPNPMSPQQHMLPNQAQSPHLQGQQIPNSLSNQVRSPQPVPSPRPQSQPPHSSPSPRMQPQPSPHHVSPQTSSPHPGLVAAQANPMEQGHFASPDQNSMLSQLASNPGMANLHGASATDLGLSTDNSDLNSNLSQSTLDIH
RECORDED METRIC: pKd
# pKd: negative log10 of molar concentration; output just the value

Query: API: value(readout= pKd, system= Histone acetyltransferase p300 (Homo sapiens), query= "CCS(=O)(=O)Nc1ccc(Oc2ccc(F)cc2F)c(-c2cn(C)c(=O)c3[nH]ccc23)c1" )
Response: 7.06

----------
tested on: Liver; experiment: Unbound intrinsic clearance in mouse liver microsomes; type: ADME, microsome
RECORDED METRIC: CL free (mL/min/kg)
Kindly answer with a numeric value in mL/min/kg, unit omitted.

Query: API: value(readout= CL free, system= Liver, query= "CC(=O)Nc1ccc(Oc2ccccc2)c(-c2cn(C)c(=O)c3[nH]ccc23)c1" )
Response: 3500

Query: Another molecule to look at: "CCNC(=O)c1ccc(Oc2ccccc2)c(-c2cn(C)c(=O)c3[nH]ccc23)c1"
Response: 717

Query: Another molecule to look at: "Cn1cc(-c2cc(NS(C)(=O)=O)ccc2OCc2ccccc2)c2cc[nH]c2c1=O"
Response: 900

Query: Another molecule to look at: "Cn1cc(-c2cc(NS(=O)(=O)CC(F)(F)F)ccc2Oc2ccccc2)c2cc[nH]c2c1=O"
Response: 650

Query: Another molecule to look at: "Cn1cc(-c2cc(S(N)(=O)=O)ccc2Oc2ccccc2)c2cc[nH]c2c1=O"
Response: 517

Query: Another molecule to look at: "Cn1cc(-c2cc(NS(C)(=O)=O)ccc2Oc2ccc(F)cc2Cl)c2cc[nH]c2c1=O"
Response: 850

Query: Another molecule to look at: "CCS(=O)(=O)Nc1ccc(Oc2c(F)cc(F)cc2F)c(-c2cn(C)c(=O)c3[nH]ccc23)c1"
Response: 900

Query: Another molecule to look at: "Cn1cc(-c2ccccc2Oc2ccccc2)c2cc[nH]c2c1=O"
Response: 93300

----------
Give measured pKi for each item. Keep answers brief.
biological target: Bromodomain-containing protein 4 (Homo sapiens, UniProt O60885); assay: Binding affinity to human N-terminal His6-tagged BRD4 BD1-BD2 (K57 to K550 residues) after 1 hr using alexa-647 conjugated probe by TR-FRET assay
# pKi: negative log10 of molar concentration; output just the value

Query: What value of pKi has been reported for the following compound? "Cn1cc(-c2ccccc2Oc2ccccc2)ccc1=O"
Response: 6.05

Query: Another compound to look at: "CN(C)S(=O)(=O)Nc1ccc(Oc2ccccc2)c(-c2cn(C)c(=O)c3[nH]ccc23)c1"
Response: 8.54

Query: Another compound to look at: "CCS(=O)(=O)Nc1ccc(Oc2ccc(F)cc2F)c(-c2cn(C)c(=O)c3[nH]ccc23)c1"
Response: 8.82

Query: Another compound to look at: "Cn1cc(-c2cc(NS(C)(=O)=O)ccc2OCc2ccccc2)c2cc[nH]c2c1=O"
Response: 7.17

Query: Another compound to look at: "Cn1cc(-c2cc(NS(C)(=O)=O)ccc2Oc2ccccc2C(F)(F)F)c2cc[nH]c2c1=O"
Response: 8.19

----------
target: Bromodomain and WD repeat-containing protein 1 (Homo sapiens, UniProt Q9NSI6); assay: Binding affinity to human WDR9(2) (A1310 to E1430 residues) expressed in bacterial expression system by BROMOscan assay
Sequence (Q9NSI6 whole entry, the tested form may be a part): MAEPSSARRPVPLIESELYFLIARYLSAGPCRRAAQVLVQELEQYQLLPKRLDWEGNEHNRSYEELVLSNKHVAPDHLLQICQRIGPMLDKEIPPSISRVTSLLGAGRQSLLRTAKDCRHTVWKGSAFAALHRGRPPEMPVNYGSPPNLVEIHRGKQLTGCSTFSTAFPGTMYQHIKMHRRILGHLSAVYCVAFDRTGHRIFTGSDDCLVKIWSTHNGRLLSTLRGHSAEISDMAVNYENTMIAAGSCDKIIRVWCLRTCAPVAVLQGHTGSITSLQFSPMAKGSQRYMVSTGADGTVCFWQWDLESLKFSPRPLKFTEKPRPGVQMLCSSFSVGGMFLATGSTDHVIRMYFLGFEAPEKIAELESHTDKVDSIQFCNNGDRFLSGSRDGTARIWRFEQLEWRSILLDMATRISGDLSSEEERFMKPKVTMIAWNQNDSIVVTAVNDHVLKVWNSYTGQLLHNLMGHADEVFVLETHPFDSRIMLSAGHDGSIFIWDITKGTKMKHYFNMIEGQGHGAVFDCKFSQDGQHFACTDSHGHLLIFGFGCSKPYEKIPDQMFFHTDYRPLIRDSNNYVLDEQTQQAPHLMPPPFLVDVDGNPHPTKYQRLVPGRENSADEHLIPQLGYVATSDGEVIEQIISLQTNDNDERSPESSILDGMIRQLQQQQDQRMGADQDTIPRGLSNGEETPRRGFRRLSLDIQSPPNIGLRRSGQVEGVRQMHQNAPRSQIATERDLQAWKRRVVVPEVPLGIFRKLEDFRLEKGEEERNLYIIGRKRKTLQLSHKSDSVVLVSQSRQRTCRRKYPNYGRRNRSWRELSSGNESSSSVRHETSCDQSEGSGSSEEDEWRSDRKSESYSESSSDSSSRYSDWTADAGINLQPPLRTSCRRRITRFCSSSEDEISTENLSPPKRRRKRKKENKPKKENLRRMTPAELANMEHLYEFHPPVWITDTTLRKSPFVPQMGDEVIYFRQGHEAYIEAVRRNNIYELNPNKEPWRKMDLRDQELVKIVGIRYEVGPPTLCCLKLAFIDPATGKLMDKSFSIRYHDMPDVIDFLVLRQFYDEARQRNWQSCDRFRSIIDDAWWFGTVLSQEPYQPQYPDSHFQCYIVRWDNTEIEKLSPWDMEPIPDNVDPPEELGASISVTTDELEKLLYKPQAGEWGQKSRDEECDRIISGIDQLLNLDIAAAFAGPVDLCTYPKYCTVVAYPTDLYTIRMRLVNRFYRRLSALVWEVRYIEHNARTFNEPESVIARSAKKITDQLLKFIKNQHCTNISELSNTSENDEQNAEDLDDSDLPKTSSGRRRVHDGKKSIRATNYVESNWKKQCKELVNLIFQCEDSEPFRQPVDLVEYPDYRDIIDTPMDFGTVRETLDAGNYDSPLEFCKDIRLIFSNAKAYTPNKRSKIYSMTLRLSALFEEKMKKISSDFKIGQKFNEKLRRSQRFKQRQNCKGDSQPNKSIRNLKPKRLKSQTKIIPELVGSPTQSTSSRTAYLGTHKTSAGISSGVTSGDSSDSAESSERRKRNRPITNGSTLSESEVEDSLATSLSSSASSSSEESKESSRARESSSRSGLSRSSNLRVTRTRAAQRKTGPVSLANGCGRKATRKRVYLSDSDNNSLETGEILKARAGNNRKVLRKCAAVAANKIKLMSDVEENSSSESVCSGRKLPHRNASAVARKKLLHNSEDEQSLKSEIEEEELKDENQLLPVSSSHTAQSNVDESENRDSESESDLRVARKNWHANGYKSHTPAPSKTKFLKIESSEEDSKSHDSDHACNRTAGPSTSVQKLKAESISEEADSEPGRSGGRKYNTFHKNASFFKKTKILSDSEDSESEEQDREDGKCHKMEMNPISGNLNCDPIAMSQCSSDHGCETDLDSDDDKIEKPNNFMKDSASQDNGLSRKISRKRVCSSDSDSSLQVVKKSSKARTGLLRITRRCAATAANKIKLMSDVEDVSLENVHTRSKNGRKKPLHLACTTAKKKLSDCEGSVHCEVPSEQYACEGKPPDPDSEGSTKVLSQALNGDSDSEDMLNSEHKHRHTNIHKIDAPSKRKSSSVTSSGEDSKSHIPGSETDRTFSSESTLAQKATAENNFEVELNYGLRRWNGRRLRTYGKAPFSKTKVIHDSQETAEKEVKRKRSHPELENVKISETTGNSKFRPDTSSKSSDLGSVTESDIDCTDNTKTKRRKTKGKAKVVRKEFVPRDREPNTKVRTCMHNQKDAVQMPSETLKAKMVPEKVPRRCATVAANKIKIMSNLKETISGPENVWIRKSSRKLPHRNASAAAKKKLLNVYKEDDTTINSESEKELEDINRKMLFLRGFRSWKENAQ
pKd: −log10 of the molar value.
RECORDED METRIC: pKd

Query: What value of pKd has been reported for the following molecule? CCS(=O)(=O)Nc1ccc(Oc2ccc(F)cc2F)c(-c2cn(C)c(=O)c3[nH]ccc23)c1 [MIVEBRESIB]
Response: < 6.00
